Here the recorded fiber score / MBP score is given for each entry.
Test system: E18 rat cortical neuron-glia co-culture;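 note: MBP fiber length per Olig2+ nucleus over MBP area × intensity per Olig2+ nucleus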
Assay: fiber score / MBP score (myelination specific beyond OL differentiation) (ratio); higher = more myelination-specific MBP alignment
Conditions: 5 µM; treatment time: 8 days (DIV5-DIV13)
Answer with a number only.

Recorded fiber score / MBP score, per entry:
# molecular.string, fiber score / MBP score
rows = [
    ("N=C(N)N", 0.71),
    ("O=C1Nc2ccc(Cl)cc2[C@@](C#CC2CC2)(C(F)(F)F)O1", 0.712),
]

Inquiry: Entry C[C@]12C=CC(=O)C=C1CC[C@@H]1[C@@H]2[C@@H](O)C[C@@]2(C)[C@H]1CC[C@]2(O)C(=O)CO , system E18 rat cortical neuron-glia co-culture: what fiber score / MBP score was measured?;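 note: MBP fiber length per Olig2+ nucleus over MBP area × intensity per Olig2+ nucleus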
Reply text: 0.923
